- Tested on: E. coli TESEC Mtb Alr
- assay-method-text: growth (OD600 after 10 h); higher = more growth (less inhibition)
- condition-summary: arabinose 10000000 nM; compound 0.1 mM; raw OD600 reference: median of DMSO wells […], cell-free background 0.052
Where a name gives a salt, the structure may show the parent alone.
readout-label: growth

compound	growth
OC(CCCN1CCCCC1)(c1ccccc1)c1ccccc1 [Diphenidol hydrochloride]	0.345
O=c1n(CCCN2CCN(c3cccc(Cl)c3)CC2)nc2ccccn12 [Trazodone hydrochloride]	0.255

growth for CC1CC(OC(=O)C(O)c2ccccc2)CC(C)(C)N1C (configuration not stated) [Eucatropine hydrochloride] ?
0.36

I have this compound here, c1ccc(C2CN3CCSC3=N2)cc1 (configuration not stated) [Tetramisole hydrochloride] , and I need its recorded growth.
0.316

I am curious: what growth value has been reported for CC(C[N+](C)(C)C)OC(N)=O (configuration not stated) [Bethanechol chloride] ?
0.349

====

- System: E. coli TESEC Mtb Alr
- assay-method-text: growth (OD600 after 10 h); higher = more growth (less inhibition)
- condition-summary: arabinose 10000000 nM; compound 0.1 mM; raw OD600 reference: median of DMSO wells 0.146, cell-free background 0.041
Where a name gives a salt, the structure may show the parent alone.
Label scheme for growth: lower than 0.1 is no (0), 0.1 and above is yes (1).

For orientation, consider the following solved cases.
molecule	target-desc	class-label
CC#C[C@]1(O)CC[C@H]2[C@@H]3CCC4=CC(=O)CCC4=C3[C@@H](c3ccc(N(C)C)cc3)C[C@@]21C [Mifepristone]	E. coli TESEC Mtb Alr	yes (1)
CC[C@H](C)C(=O)O[C@H]1C[C@@H](C)C=C2C=C[C@H](C)[C@H](CC[C@@H]3C[C@@H](O)CC(=O)O3)[C@H]21 [Lovastatin]	E. coli TESEC Mtb Alr	yes (1)
Cc1cc(C2CCCCC2)n(O)c(=O)c1 [Ciclopirox ethanolamine]	E. coli TESEC Mtb Alr	no (0)

Please tell me: is the molecule CCCOc1cc(N)ccc1C(=O)OCCN(CC)CC [Propoxycaine hydrochloride] at or over 0.1 in terms of growth?
yes (1)

Would you say Cc1nc2ccccn2c(=O)c1CCN1CCC(C(=O)c2ccc(F)cc2)CC1 [Pirenperone] shows growth at minimum 0.1?
yes (1)

Quick check, growth >= 0.1? Cc1cccc(Nc2ccccc2C(=O)O)c1C [Mefenamic acid]
yes (1)

In plain terms: is recorded growth at least 0.1 for N=C(N)NC(=N)NCCc1ccccc1 [Phenformin hydrochloride] ?
yes (1)

Please tell me: is the molecule COc1ccc(C(=O)NCc2cccnc2)cc1C(=O)NCc1cccnc1 [Picotamide monohydrate] at or over 0.1 in terms of growth?
yes (1)

====

- Test system: E. coli TESEC Mtb Alr
- assay-method-text: growth (OD600 after 10 h); higher = more growth (less inhibition)
- condition-summary: arabinose 100000 nM; compound 0.1 mM; raw OD600 reference: median of DMSO wells 0.201, cell-free background 0.041
Counter-ions that a name gives are not always drawn.
Recorded growth values for a group of compounds are listed next.
Quick one: just the number, no unit, thanks!

compound	readout-label	quantitative-result
Cc1[nH]c(=O)c(C#N)cc1-c1ccncc1	growth	0.169
CC(C)Oc1ccc2c(=O)c(-c3ccccc3)coc2c1	growth	0.186
CC(CN1c2ccccc2Sc2ccccc21)N(C)C (centres undefined) [Promethazine hydrochloride]	growth	0.197
CCn1cc(C(=O)O)c(=O)c2cc(F)c(N3CCN(C)CC3)cc21	growth	0.0454
CC(C)(C)CC(C)(C)c1ccc(OCCOCC[N+](C)(C)Cc2ccccc2)cc1 [Benzethonium chloride]	growth	0.0425

Given the compound CC(C(=O)O)c1ccc(-c2ccccc2)c(F)c1 (centres undefined) , what is its reported growth?
0.168

Param item = Nc1ccc(C(=O)NCC(=O)O)cc1 ; retrieve measured growth.
0.186

Requested read-out: growth. Entry: Cc1onc(-c2ccccc2)c1C(=O)N[C@@H]1C(=O)N2[C@@H]1SC(C)(C)[C@@H]2C(=O)O [Oxacillin sodium]
0.198

What does the data say about its growth? Entry: CN(C)CCCC1(c2ccc(F)cc2)OCc2cc(C#N)ccc21 (centres undefined) [Citalopram Hydrobromide]
0.173
